Attribution: patent US20060148895A1

# ASSAY_REMARKS: Washing-out properties: residuals of Pres. (18) components after rinsing the housing
# PROTOCOL_CONDITIONS: to a 50 kg person
REPORTED_ENDPOINT: Maximal intravenous dose from residuals

Please give the measured Maximal intravenous dose from residuals for this compound: "COC(=O)c1ccc(O)cc1"
0.042 mg/kg

* * *

# ASSAY_REMARKS: Washing-out properties: residuals of Pres. (18) components after rinsing the housing
# PROTOCOL_CONDITIONS: to a 50 kg person
Quick list: Maximal intravenous dose from residuals per entry.

See these solved cases before continuing.
Please give the measured Maximal intravenous dose from residuals for this compound: CCOC(=O)c1ccc(O)cc1 [Ethyl paraben]
<0.042 mg/kg

Please give the measured Maximal intravenous dose from residuals for this compound: CC(O)CO (stereo not drawn) [Propylene glycol]
<0.022 mg/kg

Turning to the following compound.
Please give the measured Maximal intravenous dose from residuals for this compound: CCCOC(=O)c1ccc(O)cc1 [Propyl paraben]
<0.042 mg/kg
